Recorded measurements of relative viability, one per entry
- Tested on: COR-L 105
- Test Description: relative viability (nuclei count vs DMSO), 5 days (fraction); higher = more cells survive
- Settings: first compound 50 µM
Attribute Measured: relative viability

O=C(O)CCCCC(CCSCc1ccccc1)SCc1ccccc1 (stereo not given) [CPI-613] + Nc1ncn([C@H]2C[C@H](O)[C@@H](CO)O2)c(=O)n1 [Decitabine] (partner 2 µM) : 0.668
O=C(O)CCCCC(CCSCc1ccccc1)SCc1ccccc1 (stereo not given) [CPI-613] + Cc1nc(NC(=O)N2CCC[C@H]2C(N)=O)sc1-c1ccnc(C(C)(C)C(F)(F)F)c1 [Alpelisib] (partner 2 µM) : 0.909
O=C(O)CCCCC(CCSCc1ccccc1)SCc1ccccc1 (stereo not given) [CPI-613] + O=C(c1cc(Cc2n[nH]c(=O)c3ccccc23)ccc1F)N1CCN(C(=O)C2CC2)CC1 [Olaparib] (partner 8 µM) : 0.739
O=C(O)CCCCC(CCSCc1ccccc1)SCc1ccccc1 (stereo not given) [CPI-613] + COc1cccc2cc(-c3nc([C@H]4CC[C@H](C(=O)O)CC4)n4ncnc(N)c34)[nH]c12 [OSI-027] (partner 0.5 µM) : 0.49
O=C(O)CCCCC(CCSCc1ccccc1)SCc1ccccc1 (stereo not given) [CPI-613] + CCNC(=O)c1noc(-c2cc(C(C)C)c(O)cc2O)c1-c1ccc(CN2CCOCC2)cc1 [Luminespib] (partner 0.01 µM) : 0.692

----------
- Test system: NCI-H1915
- Test Description: relative viability (nuclei count vs DMSO), 5 days (fraction); higher = more cells survive
- Settings: first compound 0.05 µM
// returns NOT MET unless relative viability is strictly below 0.7, in which case MET

Nc1ccn([C@@H]2O[C@H](CO)[C@@H](O)[C@@H]2O)c(=O)n1 [Cytarabine] + O=C(c1cc(Cc2n[nH]c(=O)c3ccccc23)ccc1F)N1CCN(C(=O)C2CC2)CC1 [Olaparib] (partner 8 µM) : MET
COc1cc2nccc(Oc3ccc(NC(=O)Nc4cc(C)on4)c(Cl)c3)c2cc1OC [Tivozanib] + C[C@@H](Oc1cc(-c2cnn(C3CCNCC3)c2)cnc1N)c1c(Cl)ccc(F)c1Cl [Crizotinib] (partner 1 µM) : NOT MET
COc1cc2nccc(Oc3ccc(NC(=O)Nc4cc(C)on4)c(Cl)c3)c2cc1OC [Tivozanib] + Nc1ncn([C@H]2C[C@H](O)[C@@H](CO)O2)c(=O)n1 [Decitabine] (partner 2 µM) : MET
COc1cc2nccc(Oc3ccc(NC(=O)Nc4cc(C)on4)c(Cl)c3)c2cc1OC [Tivozanib] + CC(=O)c1c(C)c2cnc(Nc3ccc(N4CCNCC4)cn3)nc2n(C2CCCC2)c1=O [Palbociclib] (partner 0.5 µM) : MET
COc1cc2nccc(Oc3ccc(NC(=O)Nc4cc(C)on4)c(Cl)c3)c2cc1OC [Tivozanib] + CC(C)C[C@H](NC(=O)[C@H](Cc1ccccc1)NC(=O)c1cnccn1)B(O)O [Bortezomib] (partner 0.002 µM) : NOT MET
Nc1ccn([C@@H]2O[C@H](CO)[C@@H](O)[C@@H]2O)c(=O)n1 [Cytarabine] + Cc1nc(NC(=O)N2CCC[C@H]2C(N)=O)sc1-c1ccnc(C(C)(C)C(F)(F)F)c1 [Alpelisib] (partner 2 µM) : NOT MET
Nc1ccn([C@@H]2O[C@H](CO)[C@@H](O)[C@@H]2O)c(=O)n1 [Cytarabine] + Nc1nc2[nH]cc(CCc3ccc(C(=O)N[C@@H](CCC(=O)O)C(=O)O)cc3)c2c(=O)[nH]1 [Pemetrexed] (partner 0.2 µM) : MET
COc1cc2nccc(Oc3ccc(NC(=O)Nc4cc(C)on4)c(Cl)c3)c2cc1OC [Tivozanib] + O=C(CCCCCCC(=O)Nc1ccccc1)NO [Vorinostat] (partner 1 µM) : MET

----------
Recorded measurements of relative viability, one per entry
- Test system: ChaGo-K-1
- Test Description: relative viability (nuclei count vs DMSO), 5 days (fraction); higher = more cells survive
- Settings: first compound 0.006325 µM
Attribute Measured: relative viability

CC(=O)O[C@@]12CO[C@@H]1C[C@H](O)[C@@]1(C)C(=O)[C@H](O)C3=C(C)[C@@H](OC(=O)[C@H](O)[C@@H](NC(=O)OC(C)(C)C)c4ccccc4)C[C@@](O)([C@@H](OC(=O)c4ccccc4)[C@H]21)C3(C)C [Docetaxel] + CC(C)C[C@H](NC(=O)[C@H](Cc1ccccc1)NC(=O)c1cnccn1)B(O)O [Bortezomib] (partner 0.002 µM) : 0.419
CC(=O)O[C@@]12CO[C@@H]1C[C@H](O)[C@@]1(C)C(=O)[C@H](O)C3=C(C)[C@@H](OC(=O)[C@H](O)[C@@H](NC(=O)OC(C)(C)C)c4ccccc4)C[C@@](O)([C@@H](OC(=O)c4ccccc4)[C@H]21)C3(C)C [Docetaxel] + COc1cc2c(Oc3ccc(NC(=O)C4(C(=O)Nc5ccc(F)cc5)CC4)cc3F)ccnc2cc1OCCCN1CCOCC1 [Foretinib] (partner 0.25 µM) : 0.329
CC(=O)O[C@@]12CO[C@@H]1C[C@H](O)[C@@]1(C)C(=O)[C@H](O)C3=C(C)[C@@H](OC(=O)[C@H](O)[C@@H](NC(=O)OC(C)(C)C)c4ccccc4)C[C@@](O)([C@@H](OC(=O)c4ccccc4)[C@H]21)C3(C)C [Docetaxel] + CS(=O)(=O)N1CCN(Cc2cc3nc(-c4cccc5[nH]ncc45)nc(N4CCOCC4)c3s2)CC1 [Pictilisib] (partner 1 µM) : 0.354

----------
- System: RERF-LC-KJ
- Test Description: relative viability (nuclei count vs DMSO), 5 days (fraction); higher = more cells survive
- Settings: first compound 0.5 µM
Recorded measurements of relative viability, one per entry
Attribute Measured: relative viability

COc1cc2nccc(Oc3ccc(NC(=O)Nc4cc(C)on4)c(Cl)c3)c2cc1OC [Tivozanib] + Cc1cc(Nc2cc(N3CCN(C)CC3)nc(Sc3ccc(NC(=O)C4CC4)cc3)n2)n[nH]1 [Tozasertib] (partner 0.1 µM) : 0.496
COc1cc2nccc(Oc3ccc(NC(=O)Nc4cc(C)on4)c(Cl)c3)c2cc1OC [Tivozanib] + CS(=O)(=O)N1CCN(Cc2cc3nc(-c4cccc5[nH]ncc45)nc(N4CCOCC4)c3s2)CC1 [Pictilisib] (partner 1 µM) : 0.586
COc1cc2nccc(Oc3ccc(NC(=O)Nc4cc(C)on4)c(Cl)c3)c2cc1OC [Tivozanib] + COc1cccc2cc(-c3nc([C@H]4CC[C@H](C(=O)O)CC4)n4ncnc(N)c34)[nH]c12 [OSI-027] (partner 0.5 µM) : 0.59
COc1cc2nccc(Oc3ccc(NC(=O)Nc4cc(C)on4)c(Cl)c3)c2cc1OC [Tivozanib] + CC1(C)CCC(c2ccc(Cl)cc2)=C(CN2CCN(c3ccc(C(=O)NS(=O)(=O)c4ccc(N[C@H](CCN5CCOCC5)CSc5ccccc5)c(S(=O)(=O)C(F)(F)F)c4)cc3)CC2)C1 [Navitoclax] (partner 0.5 µM) : 1.07
Nc1ccn([C@@H]2O[C@H](CO)[C@@H](O)[C@@H]2O)c(=O)n1 [Cytarabine] + CC(C)C[C@H](NC(=O)[C@H](Cc1ccccc1)NC(=O)c1cnccn1)B(O)O [Bortezomib] (partner 0.002 µM) : 0.472
Nc1ccn([C@@H]2O[C@H](CO)[C@@H](O)[C@@H]2O)c(=O)n1 [Cytarabine] + C[C@@H](Oc1cc(-c2cnn(C3CCNCC3)c2)cnc1N)c1c(Cl)ccc(F)c1Cl [Crizotinib] (partner 1 µM) : 0.4
COc1cc2nccc(Oc3ccc(NC(=O)Nc4cc(C)on4)c(Cl)c3)c2cc1OC [Tivozanib] + Nc1ncn([C@H]2C[C@H](O)[C@@H](CO)O2)c(=O)n1 [Decitabine] (partner 2 µM) : 0.723
Nc1ccn([C@@H]2O[C@H](CO)[C@@H](O)[C@@H]2O)c(=O)n1 [Cytarabine] + CCNC(=O)c1noc(-c2cc(C(C)C)c(O)cc2O)c1-c1ccc(CN2CCOCC2)cc1 [Luminespib] (partner 0.01 µM) : 0.416

----------
- Test system: LU99A
- Test Description: relative viability (nuclei count vs DMSO), 5 days (fraction); higher = more cells survive
- Settings: first compound 0.8 µM
Recorded measurements of relative viability, one per entry
Attribute Measured: relative viability

O=c1[nH]c2ccccc2n1C1CCN(CCCC(c2ccc(F)cc2)c2ccc(F)cc2)CC1 [Pimozide] + CS(=O)(=O)N1CCN(Cc2cc3nc(-c4cccc5[nH]ncc45)nc(N4CCOCC4)c3s2)CC1 [Pictilisib] (partner 1 µM) : 0.314
Cc1cnc(-c2cnc(NCCNc3ccc(C#N)cn3)nc2-c2ccc(Cl)cc2Cl)[nH]1 + CC(=O)Nc1cccc(-n2c(=O)n(C3CC3)c(=O)c3c(Nc4ccc(I)cc4F)n(C)c(=O)c(C)c32)c1 [Trametinib] (partner 0.02 µM) : 0.53
O=c1[nH]c2ccccc2n1C1CCN(CCCC(c2ccc(F)cc2)c2ccc(F)cc2)CC1 [Pimozide] + COc1cccc2cc(-c3nc([C@H]4CC[C@H](C(=O)O)CC4)n4ncnc(N)c34)[nH]c12 [OSI-027] (partner 0.5 µM) : 0.228
Cc1cnc(-c2cnc(NCCNc3ccc(C#N)cn3)nc2-c2ccc(Cl)cc2Cl)[nH]1 + CS(=O)(=O)CCNCc1ccc(-c2ccc3ncnc(Nc4ccc(OCc5cccc(F)c5)c(Cl)c4)c3c2)o1 [Lapatinib] (partner 2 µM) : 1.06

Data origin, for the record: the supplement of paper PMC10307832
